Origin of the recorded values: PubChem BioAssay AID1159580

measurement-description: chemical genetic growth profiling, strain panel (AID 1159580);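 further: tested at 20 µM; growth read once vehicle control cultures reached saturation at 30 °C; 1 = growth at the plate median or of vehicle wells; lower values mean less growth of the strain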
measurement-context: S. cerevisiae deletion strains, growth OD, locus YNR052C, strain pop2, hits give low values
About 2,000 (36%) of roughly 5,500 compounds were called active. About 18% were inconclusive and are not listed. The list shows a part of the results.
measured-quantity: normalized growth
Form rule: numeric answer, no unit written next to it.

[[record]]
compound = "Oc1c(Cl)cc(Cl)c(Cl)c1Cc1c(O)c(Cl)cc(Cl)c1Cl"
reported = 0.0618

[[record]]
compound = "Cc1oncc1C(=O)Nc1ccc(C(F)(F)F)cc1"
reported = 0.979

[[record]]
compound = "COc1ccc2c(c1)OCC(Cc1ccc(OC)c(OC(C)=O)c1)C2=O (stereo not given)"
reported = 0.996

[[record]]
compound = "OC[C@H]1O[C@@H](n2cnc3c(NCc4ccco4)ncnc32)[C@H](O)[C@@H]1O"
reported = 0.996

[[record]]
compound = "NC(=O)NC1NC(=O)NC1=O (stereo not given)"
reported = 0.992


*Q* What does the record list as normalized growth for Cc1cccc(C)c1NC(=O)C1CCCCN1C (stereo not given) ?
*A* 1

*Q* Now give it for C[C@]12CCC3c4ccc(OC(=O)CCC(=O)O)cc4CCC3C1CCC2=O (stereo not given in full) too.
*A* 0.873

*Q* Here is the next compound: COc1ccc(-c2cc(=O)c3c(OC)cc(OC)cc3o2)cc1
*A* 0.995

*Q* Likewise for CC1(C)C(=O)[C@@H]2O[C@@H]2[C@@]2(C)C1C[C@@H](O)[C@]1(C)C2CC[C@@]2(C)[C@H](c3ccoc3)OC(=O)C3OC321 (stereo not given in full) ?
*A* 0.964

*Q* Entry to check: COc1cc2c(cc1OC)C1(O)C(=O)c3ccc(O)c(C(=O)O)c3OC1CO2 (stereo not given)
*A* 0.999

---

Entries and their normalized growth values follow.
measurement-description: chemical genetic growth profiling, strain panel (AID 1159580);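 further: tested at 20 µM; growth read once vehicle control cultures reached saturation at 30 °C; 1 = growth at the plate median or of vehicle wells; lower values mean less growth of the strain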
measurement-context: S. cerevisiae deletion strains, growth OD, locus YLR342W, strain FKS1 (second series), hits give low values
The whole screen tested about 5,500 compounds, of which about 2,000 (36%) were called active. Not shown: some 18% with an inconclusive outcome. This is one part of the list. Where a SMILES comes first, the peptide text is derived from it.
# print the numeric value only

[[record]]
compound = "CC(=O)N[C@@H](CC(=O)O)C(=O)N[C@@H](CCC(=O)O)C(=O)O (Ac-Asp-Glu-OH)"
measured_quantity = "normalized growth"
reported = 0.996

[[record]]
compound = "CC(=O)C1CC[C@H]2C3CC[C@H]4C[C@H](O)CC[C@]4(C)C3CC[C@]12C (some centres undefined)"
measured_quantity = "normalized growth"
reported = 0.997

[[record]]
compound = "C1N2CN3CN1CN(C2)C3"
measured_quantity = "normalized growth"
reported = 0.991


*Q* Find the recorded normalized growth belonging to COC(=O)/C(C)=C\CC12OC(C)(C)C3CC(C=C4C(=O)c5c(OC)c6c(c(CC=C(C)C)c5OC431)OC(C)(CCC=C(C)C)C=C6)C2=O (centres undefined) and report it.
*A* 0.977

---

measurement-description: chemical genetic growth profiling, strain panel (AID 1159580);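 further: tested at 20 µM; growth read once vehicle control cultures reached saturation at 30 °C; 1 = growth at the plate median or of vehicle wells; lower values mean less growth of the strain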
measurement-context: S. cerevisiae deletion strains, growth OD, locus YBL105C, strain PKC1
Among all 5,500 compounds or so, about 2,000 (36%) were called active. About 18% were inconclusive and are not listed. Cut-off read from the data, not from the text of the source: active = normalized growth mostly below about 0.91 (no sharp cut-off); inconclusive = no clear call, values can overlap the other calls; inactive = mostly above about 0.92. The list shows a part of the results.
Just give me one of these, please: t = active, f = inactive

Examples with answers:
[[record]]
molecule = "Cc1cccc(N=NC(C(=O)C(F)(F)F)=C(O)c2cccs2)c1"
category_label = "f"

[[record]]
molecule = "O=S(=O)(Nc1cc(Cl)c(Cl)cc1Cl)c1cc(C(F)(F)F)cc(C(F)(F)F)c1"
category_label = "f"

[[record]]
molecule = "O=S(=O)(NCc1ccc(C(F)(F)F)cc1)c1cc(Br)c(Br)s1"
category_label = "f"


*Q* Hi, sorry to bother you, what did the test record for Cc1ccc(NC(=S)C(C#N)C(=O)N2CCOCC2)c(C)c1 (stereo not given) ?
*A* f

*Q* Same question for C/C(=N/NC(=S)NCC(C)(C)C)c1cc(F)cc(Cl)c1O please.
*A* f

*Q* How about O=C(Oc1ccc2ccccc2c1C1SCCS1)c1ccc([N+](=O)[O-])o1 ?
*A* f

*Q* Could you do the same for Clc1ccc(Oc2ccnc3cc(Cl)ccc23)cc1 , please?
*A* f

*Q* And what about the molecule Cc1ccccc1/C=C/c1c[nH]c2ccccc12 ?
*A* f

*Q* How about O=S(=O)(Nc1csc(C(F)(F)F)c1-c1ccccc1)c1cc(Br)c(Br)s1 ?
*A* f
